- experimentSummary: in vivo
- experimentalParameters: female, BALB/c, mouse, iv, 20 pmol peptide, total radioactivity, uptake in stomach
observable: tissue uptake at 1 h (%ID/g)
Reply numerically in %ID/g, unit not repeated.

Task item: Dear colleague, I am looking for the recorded tissue uptake at 1 h of the following compound: CCCC[C@@H](C(=O)N[C@@H](CC(=O)O)C(=O)N[C@@H](Cc1cccc2ccccc12)C(N)=O)N(C)C(=O)[C@H](Cc1c[nH]c2ccccc12)NC(=O)CNC(=O)[C@H](Cc1ccc(O)cc1)NC(=O)[C@H](C)NC(=O)[C@@H](CCC(=O)O)NC(=O)CN1CCN(CC(=O)O)CCN(CC(=O)O)CCN(CC(=O)O)CC1 [^68Ga-DOTA-MGS5, metal not drawn]
Reply: 4.63

---

- experimentSummary: in vivo
- experimentalParameters: female, BALB/c, mouse, iv, 20 pmol peptide, total radioactivity
observable: tissue uptake dose at 5 min
Express your answer as a number followed by its unit.

Task item: Dear colleague, I am looking for the recorded tissue uptake dose at 5 min of the following compound: CCCC[C@@H](C(=O)N[C@@H](CC(=O)O)C(=O)N[C@@H](Cc1cccc2ccccc12)C(N)=O)N(C)C(=O)[C@H](Cc1c[nH]c2ccccc12)NC(=O)CNC(=O)[C@H](Cc1ccc(O)cc1)NC(=O)[C@H](C)NC(=O)[C@@H](CCC(=O)O)NC(=O)CN1CCN(CC(=O)O)CCN(CC(=O)O)CCN(CC(=O)O)CC1 [^68Ga-DOTA-MGS5, metal not drawn]
Reply: 81.8 %ID

---

- experimentSummary: in vivo
- experimentalParameters: female, BALB/c, mouse, iv, 20 pmol peptide, total radioactivity, uptake in pancreas
observable: tissue uptake at 1 h (%ID/g)
Reply numerically in %ID/g, unit not repeated.

Task item: Dear colleague, I am looking for the recorded tissue uptake at 1 h of the following molecule: CCCC[C@@H](C(=O)N[C@@H](CC(=O)O)C(=O)N[C@@H](Cc1cccc2ccccc12)C(N)=O)N(C)C(=O)[C@H](Cc1c[nH]c2ccccc12)NC(=O)CNC(=O)[C@H](Cc1ccc(O)cc1)NC(=O)[C@H](C)NC(=O)[C@@H](CCC(=O)O)NC(=O)CN1CCN(CC(=O)O)CCN(CC(=O)O)CCN(CC(=O)O)CC1 [^68Ga-DOTA-MGS5, metal not drawn]
Reply: 1.5

---

- experimentSummary: in vivo
- experimentalParameters: female, BALB/c, mouse, iv, 20 pmol peptide, total radioactivity, uptake in pancreas
observable: tissue uptake at 5 min (%ID/g)
Reply numerically in %ID/g, unit not repeated.

Task item: Dear colleague, I am looking for the recorded tissue uptake at 5 min of the following molecule: CCCC[C@@H](C(=O)N[C@@H](CC(=O)O)C(=O)N[C@@H](Cc1cccc2ccccc12)C(N)=O)N(C)C(=O)[C@H](Cc1c[nH]c2ccccc12)NC(=O)CNC(=O)[C@H](Cc1ccc(O)cc1)NC(=O)[C@H](C)NC(=O)[C@@H](CCC(=O)O)NC(=O)CN1CCN(CC(=O)O)CCN(CC(=O)O)CCN(CC(=O)O)CC1 [^68Ga-DOTA-MGS5, metal not drawn]
Reply: 4.03

---

- experimentSummary: in vivo
- experimentalParameters: female, BALB/c, mouse, iv, 20 pmol peptide, total radioactivity, uptake in intestine
observable: tissue uptake at 20 min (%ID/g)
Reply numerically in %ID/g, unit not repeated.

Task item: Dear colleague, I am looking for the recorded tissue uptake at 20 min of the following compound: CCCC[C@@H](C(=O)N[C@@H](CC(=O)O)C(=O)N[C@@H](Cc1cccc2ccccc12)C(N)=O)N(C)C(=O)[C@H](Cc1c[nH]c2ccccc12)NC(=O)CNC(=O)[C@H](Cc1ccc(O)cc1)NC(=O)[C@H](C)NC(=O)[C@@H](CCC(=O)O)NC(=O)CN1CCN(CC(=O)O)CCN(CC(=O)O)CCN(CC(=O)O)CC1 [^68Ga-DOTA-MGS5, metal not drawn]
Reply: 1.22
